B1: LINE1-mini (parent)
chain: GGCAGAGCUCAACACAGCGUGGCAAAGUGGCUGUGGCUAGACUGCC

variants of: B1; test: self-cleavage, relative activity (ratio to wild type); higher = more cleavage; in vitro, sequencing; the parent is a self-cleaving ribozyme
ASSAY ENDPOINT: self-cleavage

mutant_name="C23A U43C" assay_endpoint=self-cleavage quantitative_readout=0.08
mutant_name="A12U U32G" assay_endpoint=self-cleavage quantitative_readout=0.08
mutant_name="A26G G40C" assay_endpoint=self-cleavage quantitative_readout=0.08
mutant_name="C18U G44U" assay_endpoint=self-cleavage quantitative_readout=0.07
mutant_name="G7U C13A" assay_endpoint=self-cleavage quantitative_readout=0.14
mutant_name="G17A G44U" assay_endpoint=self-cleavage quantitative_readout=0.03
mutant_name="G17A C37A" assay_endpoint=self-cleavage quantitative_readout=0.05
mutant_name="G5U A14C" assay_endpoint=self-cleavage quantitative_readout=0.06
mutant_name="U9G A14G" assay_endpoint=self-cleavage quantitative_readout=0.12
mutant_name="A11C U34C" assay_endpoint=self-cleavage quantitative_readout=0.04
mutant_name="C10A C23U" assay_endpoint=self-cleavage quantitative_readout=0.06
mutant_name="U32C G35U" assay_endpoint=self-cleavage quantitative_readout=0.12
mutant_name="C8A C31U" assay_endpoint=self-cleavage quantitative_readout=0.21
mutant_name="A11C G19C" assay_endpoint=self-cleavage quantitative_readout=0.08
mutant_name="G36U A41C" assay_endpoint=self-cleavage quantitative_readout=0.05
mutant_name="C18G U20G" assay_endpoint=self-cleavage quantitative_readout=0.41
mutant_name="G22U G40U" assay_endpoint=self-cleavage quantitative_readout=0.15
mutant_name="C3U G17A" assay_endpoint=self-cleavage quantitative_readout=0.1
mutant_name="A26U G33A" assay_endpoint=self-cleavage quantitative_readout=0.09
mutant_name="G19U C42U" assay_endpoint=self-cleavage quantitative_readout=0.3
mutant_name="A14C U38C" assay_endpoint=self-cleavage quantitative_readout=0.07
mutant_name="C8U C18U" assay_endpoint=self-cleavage quantitative_readout=0.14
